# System Under Test: Phosphodiesterase 1 (Bos taurus, UniProt Q01061+P14100)
# Protocol Description: Inhibitory activity against […] phosphodiesterase was determined in vitro using bovine aorta, at 1 uM cGMP in the presence of calcium (10 uM) and calmodulin (15 nM); Compound is insignificant.
# Type: protein assay
IC50 values for the compounds below.

>  <Compound>
COc1ccc(C2CNC(=O)C2C(=O)O)cc1OC (centres undefined)

>  <IC50>
> 0.001 M

$$$$
>  <Compound>
CCOC(=O)C1C(=O)NCC1c1ccc(OC)c(OC)c1 (centres undefined)

>  <IC50>
> 0.001 M

$$$$
>  <Compound>
CCCCOc1ccc(C2CNC(=O)C2)cc1 (centres undefined)

>  <IC50>
> 0.001 M

$$$$
>  <Compound>
COc1ccc(C2CCNC2)cc1OC.O=C(O)C(=O)O (centres undefined)

>  <IC50>
> 0.001 M

$$$$
